- Method notes: pH-solubility of polypeptide variants
- Assay type: physicochemical
- Study conditions: pH 5.5; a: precipitate, supernatant assayed; read-out: pH-solubility, Concentration
Square brackets hold non-standard residues; d marks the D form. Peptide text beside a SMILES is read from it. Orn = NCCC[C@H](N)C(=O)O

Compound: CC[C@H](C)[C@H](NC(=O)CNC(=O)[C@@H](N)CC(=O)O)C(=O)N[C@@H](Cc1c[nH]c2ccccc12)C(=O)N[C@@H](CCCCN)C(=O)N[C@@H](C)C(=O)N[C@@H](CO)C(=O)N[C@@H](Cc1ccccc1)C(N)=O [SEQ ID NO.21] (H-DGIWKASF-NH2)
solubility thermodynamic at 3 min: 140 µg/mL
--
Compound: CC(C)[C@H](NC(=O)[C@@H](NC(=O)[C@H](Cc1ccccc1)NC(=O)[C@@H](NC(=O)[C@@H](NC(=O)[C@H](Cc1ccccc1)NC(=O)[C@H](CO)NC(=O)[C@H](C)NC(=O)[C@@H](N)CCCN)[C@@H](C)O)[C@@H](C)O)[C@@H](C)O)C(=O)N[C@H](C(=O)N[C@@H](CCCN)C(=O)N[C@@H](CO)C(N)=O)[C@@H](C)O [SEQ ID NO.10, OASFTTFTVTOS-NH2] (H-[Orn]ASFTTFTVT[Orn]S-NH2)
solubility thermodynamic at 3 min: 3600 µg/mL
--
Compound: CC(C)[C@H](NC(=O)[C@@H](NC(=O)[C@H](Cc1ccccc1)NC(=O)[C@@H](NC(=O)[C@@H](NC(=O)[C@H](Cc1ccccc1)NC(=O)[C@H](CO)NC(=O)[C@H](C)NC(=O)[C@H](CCCCN)NC(=O)CNC(=O)[C@H](CCC(=O)O)NC(=O)[C@@H](C)NC(=O)[C@@H](C)N)[C@@H](C)O)[C@@H](C)O)[C@@H](C)O)C(=O)N[C@H](C(=O)N[C@@H](CCCCN)C(=O)NCC(=O)N[C@@H](CO)C(=O)N[C@H](C)C(=O)N[C@H](C)C(N)=O)[C@@H](C)O [SEQ ID NO.7] (H-[dA][dA]EGKASFTTFTVTKGS[dA][dA]-NH2)
solubility thermodynamic at 3 min: 22300 µg/mL

###

- Method notes: Appearance of solutions in solubility study of variants
- Type: physicochemical
- Study conditions: pH 4.5, 10 mg/ml
Square brackets hold non-standard residues; d marks the D form. Peptide text beside a SMILES is read from it. Orn = NCCC[C@H](N)C(=O)O

Molecule: CC(=O)N[C@H](C)C(=O)N[C@H](C)C(=O)N[C@@H](CCC(=O)O)C(=O)NCC(=O)N[C@@H](CCCCN)C(=O)N[C@@H](C)C(=O)N[C@@H](CO)C(=O)N[C@@H](Cc1ccccc1)C(=O)N[C@H](C(=O)N[C@H](C(=O)N[C@@H](Cc1ccccc1)C(=O)N[C@H](C(=O)N[C@H](C(=O)N[C@H](C(=O)N[C@@H](CCCCN)C(=O)NCC(=O)N[C@@H](CO)C(=O)N[C@H](C)C(=O)N[C@H](C)C(N)=O)[C@@H](C)O)C(C)C)[C@@H](C)O)[C@@H](C)O)[C@@H](C)O [SEQ ID NO.8] (Ac-[dA][dA]EGKASFTTFTVTKGS[dA][dA]-NH2)
Appearance of solutions: Clear

Molecule: CC(C)[C@H](N)C(=O)N[C@H](C(=O)N[C@@H](CCCCN)C(=O)N[C@@H](Cc1ccc(O)cc1)C(=O)N[C@@H](Cc1c[nH]c2ccccc12)C(=O)N[C@@H](Cc1ccccc1)C(=O)N[C@@H](Cc1ccc(O)cc1)C(=O)N[C@@H](CCCNC(=N)N)C(N)=O)[C@@H](C)O [SEQ ID NO.22] (H-VTKYWFYR-NH2)
Appearance of solutions: Clear

Molecule: CC(C)[C@H](NC(=O)[C@@H](NC(=O)[C@H](Cc1ccccc1)NC(=O)[C@@H](NC(=O)[C@@H](NC(=O)[C@H](Cc1ccccc1)NC(=O)[C@H](CO)NC(=O)[C@H](C)NC(=O)[C@@H](N)CCCN)[C@@H](C)O)[C@@H](C)O)[C@@H](C)O)C(=O)N[C@H](C(=O)N[C@@H](CCCN)C(=O)N[C@@H](CO)C(N)=O)[C@@H](C)O [SEQ ID NO.10, OASFTTFTVTOS-NH2] (H-[Orn]ASFTTFTVT[Orn]S-NH2)
Appearance of solutions: Clear

Molecule: CC(C)[C@H](NC(=O)[C@@H](NC(=O)[C@H](Cc1ccccc1)NC(=O)[C@@H](NC(=O)[C@@H](NC(=O)[C@H](Cc1ccccc1)NC(=O)[C@H](CO)NC(=O)[C@H](C)NC(=O)[C@@H](N)CCCCN)[C@@H](C)O)[C@@H](C)O)[C@@H](C)O)C(=O)N[C@H](C(=O)N[C@@H](CCCCN)C(=O)NCC(=O)N[C@@H](CO)C(=O)O)[C@@H](C)O [SEQ ID NO.4] (H-KASFTTFTVTKGS-OH)
Appearance of solutions: Clear

Molecule: CC(C)[C@H](NC(=O)[C@@H](NC(=O)[C@H](Cc1ccccc1)NC(=O)[C@@H](NC(=O)[C@@H](NC(=O)[C@H](Cc1ccccc1)NC(=O)[C@H](CO)NC(=O)[C@H](C)NC(=O)[C@H](CCCCN)NC(=O)CNC(=O)[C@H](CCC(=O)O)NC(=O)[C@@H](C)NC(=O)[C@@H](C)N)[C@@H](C)O)[C@@H](C)O)[C@@H](C)O)C(=O)N[C@H](C(=O)N[C@@H](CCCCN)C(=O)NCC(=O)N[C@@H](CO)C(=O)N[C@H](C)C(=O)N[C@H](C)C(N)=O)[C@@H](C)O [SEQ ID NO.7] (H-[dA][dA]EGKASFTTFTVTKGS[dA][dA]-NH2)
Appearance of solutions: Clear
